target: Cannabinoid CB1 Receptor (Homo sapiens, UniProt P21554); construct: expressed in transfected cells; experiment: Binding assay for CB1 agonists or inverse agonists (radioligand competition, membranes of transfected SK-N-MC cells); details: test concentration of 0.2 μM; compounds without an IC50 binding value; read-out: Cannabinoid CB1 Receptor Binding percent inhibition
Sequence (P21554 whole entry): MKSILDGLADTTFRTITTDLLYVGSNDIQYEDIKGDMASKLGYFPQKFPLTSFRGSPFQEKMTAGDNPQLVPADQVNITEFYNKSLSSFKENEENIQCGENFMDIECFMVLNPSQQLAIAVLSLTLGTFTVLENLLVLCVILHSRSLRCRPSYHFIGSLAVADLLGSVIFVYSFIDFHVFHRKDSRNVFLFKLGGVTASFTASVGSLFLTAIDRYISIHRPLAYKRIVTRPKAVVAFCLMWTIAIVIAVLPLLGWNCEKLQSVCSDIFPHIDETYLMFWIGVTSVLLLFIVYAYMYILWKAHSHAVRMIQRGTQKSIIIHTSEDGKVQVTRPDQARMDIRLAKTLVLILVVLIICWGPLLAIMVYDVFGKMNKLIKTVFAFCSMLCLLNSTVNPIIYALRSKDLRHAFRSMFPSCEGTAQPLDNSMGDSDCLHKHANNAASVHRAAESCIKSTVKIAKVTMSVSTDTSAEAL
experimental_endpoint: inhibition at 0.2 µM (%)
// note: answer is a bare numeric in %

// known answers, use as guide
CC(C)(C)OC(=O)N1C/C(=C\c2ccc(F)cc2)c2c(c(C(=O)NN3CC4CCCC4C3)nn2-c2ccc(Cl)cc2)C1 (stereo not shown) [Cpd 84] = 30
O=C(NN1CC2CCCC2C1)c1nn(-c2ccc(Cl)cc2)c2c1CNC/C2=C\c1ccc(F)cc1 (stereo not shown) [Cpd 85] = 45
COc1ccc(/C=C2\CN(C(=O)OC(C)(C)C)Cc3c(C(=O)NN4CCC(O)CC4)nn(-c4ccc(Cl)cc4Cl)c32)cc1 [Cpd 141] = 6

Ask: Item under review: CCNC(=O)N1C/C(=C\c2ccc(OC)cc2)c2c(c(C(=O)NN3CC4CCCC4C3)nn2-c2ccc(Cl)cc2Cl)C1 (stereo not shown) [Cpd 101] . Reported inhibition at 0.2 µM?
Result: 68
